target: recombinant human PAI-1 (Homo sapiens, UniProt P05121); experiment: biochemical; conditions: read-out: Inhibition Rate of PAI-1 Activity (%)
Sequence (P05121 24-402): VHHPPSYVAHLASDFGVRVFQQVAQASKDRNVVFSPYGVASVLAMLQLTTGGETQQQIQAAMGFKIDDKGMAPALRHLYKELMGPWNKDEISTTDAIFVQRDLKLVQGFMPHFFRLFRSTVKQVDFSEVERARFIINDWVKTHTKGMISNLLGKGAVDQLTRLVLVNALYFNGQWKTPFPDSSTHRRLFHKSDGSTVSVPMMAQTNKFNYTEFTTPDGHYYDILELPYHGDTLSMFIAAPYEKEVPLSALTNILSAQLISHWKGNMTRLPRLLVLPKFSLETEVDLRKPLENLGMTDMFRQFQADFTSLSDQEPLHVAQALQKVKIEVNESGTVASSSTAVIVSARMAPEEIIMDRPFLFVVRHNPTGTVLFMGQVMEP
Metric Name: inhibition at 25 µM (%)

Smiles Notation: CC(C)(C)c1ccc(CN(C(=O)C(=O)O)c2ccc(Sc3ccc(OC(F)(F)F)cc3)cc2)cc1
Numeric Readout: 91

Smiles Notation: CC(C)(C)c1ccc(CN(C(=O)C(=O)O)c2ccccc2Oc2ccc(OC(F)(F)F)cc2)cc1
Numeric Readout: 93

Smiles Notation: CC(C)(C)c1ccc(CN(C(=O)C(=O)O)c2ccc(Cl)c(OCc3ccc(OC(F)(F)F)cc3)c2)cc1
Numeric Readout: 88

###

biological target: recombinant human PAI-1 (Homo sapiens, UniProt P05121); test: biochemical; details: read-out: Inhibition Rate of PAI-1 Activity (%)
Metric Name: inhibition at 5 µM (%)

Compound: CCCCCOc1ccc(-c2ccc(OC(F)(F)F)cc2)cc1N(CCCCCc1ccccc1)C(=O)C(=O)O [Compound 242]
inhibition at 5 µM (%): 88

(1) CC(C)(C)c1ccc(COc2cc(/C=C/C(=O)O)cc(Oc3ccc(OC(F)(F)F)cc3)c2)cc1 [Compound 409]
(2) O=C(O)C(=O)N(Cc1ccc(O)cc1)c1ccc(-c2ccc(OC(F)(F)F)cc2)cc1 [Compound 181]
[ask] Which value of inhibition at 5 µM is smaller, the one for 1 or the one for 2 ? Identify your selection by its label.
[reply] 2

(I) CC(C)(C)c1ccc(N(C(=O)C(=O)O)c2ccccc2-c2ccc(OC(F)(F)F)cc2)cc1 [Compound 157]
(II) CC(C)(C)c1ccc(COc2cc(-c3ccc(OC(F)(F)F)cc3)cc(O)c2OCC(=O)O)cc1 [Compound 546]
(III) CC(C)(C)c1ccc(COc2c(CCC(=O)O)cccc2-c2ccc(OC(F)(F)F)cc2)cc1 [Compound 88]
[ask] Order the records so the highest inhibition at 5 µM appears first and the lowest last. In plain terms: list the labels in the order you were asked to.
[reply] II, III, I

(A) CN(c1ccc(OC(F)(F)F)cc1)c1ccc(OCc2ccc(C(C)(C)C)cc2)c(CCC(=O)O)c1 [Compound 417]
(B) O=C(O)/C=C/c1c(Oc2ccc(OC(F)(F)F)cc2)cccc1Oc1ccc(OC(F)(F)F)cc1 [Compound 97]
(C) CC(C)(C)c1ccc(CN(C(=O)C(=O)O)c2ccccc2Oc2ccc(OC(F)(F)F)cc2)cc1 [Compound 153]
(D) O=C(O)C(=O)N(CCCCc1ccccc1)c1ccc(N2CCCCC2=O)c(-c2ccc(OC(F)(F)F)cc2)c1 [Compound 250]
[ask] # sort list by recorded inhibition at 5 µM, greatest to least Answer format: the labels, ordered as requested.
[reply] D, A, B, C

###

target: recombinant human PAI-1 (Homo sapiens); assay: biochemical; settings: read-out: Inhibition Rate of PAI-1 Activity (%)
Metric Name: inhibition at 25 µM (%)

Please review the entries below; each comes with its answer.
Compound: CC(C)(C)c1ccc(CN(C(=O)C(=O)O)c2ccc(-c3ccc(OC(F)(F)F)cc3)cc2C(F)(F)F)cc1 [Compound 150]
System: recombinant human PAI-1 (Homo sapiens)
inhibition at 25 µM, %: 87
//
Compound: CC(C)(C)c1ccc(CN(C(=O)C(=O)O)c2ccccc2OCc2ccc(OC(F)(F)F)cc2)cc1 [Compound 620]
System: recombinant human PAI-1 (Homo sapiens)
inhibition at 25 µM, %: 95
//
Compound: O=C(O)C(=O)N(CCCCc1ccccc1)c1ccc(-c2ccc(OC(F)(F)F)cc2)cc1 [Compound 225]
System: recombinant human PAI-1 (Homo sapiens)
inhibition at 25 µM, %: 88

(A) CC(C)(C)c1ccc(N(C(=O)C(=O)O)c2ccc(Oc3ccc(OC(F)(F)F)cc3)cc2)cc1 [Compound 165]
(B) CC(C)(C)c1ccc(CN(C(=O)C(=O)O)c2ccc(-c3ccc(C#N)cc3)cc2)cc1 [Compound 149]
[ask] Which record shows the lower inhibition at 25 µM: the first, A , or the second, B ? Selection: enter the item's label.
[reply] B
(B: 34%, A: 96%)

###

target: recombinant human PAI-1 (Homo sapiens, UniProt P05121); experiment: Test Example 2: Human PAI-1 Inhibitory Activity (pH 7.4 HEPES buffer, 10 minutes incubation with two-chain tPA); type: biochemical; set-up: purchased Molecular Innovations, Inc; settings: read-out: Inhibition Rate of PAI-1 Activity (%)
Metric Name: inhibition at 0.3 µM (%)

Worked examples, 8 compounds total:
Smiles Notation: O=C(O)C(=O)N(CCCCc1ccccc1)c1cc(-c2ccc(OC(F)(F)F)cc2)ccc1OCCCC1CCCCC1
System: recombinant human PAI-1 (Homo sapiens, UniProt P05121)
Metric Name: inhibition at 0.3 µM
Numeric Readout: 64
//
Smiles Notation: CCC(CC)Oc1ccc(-c2ccc(CCC(=O)O)c(Oc3ccc(C(C)(C)C)cc3)c2)cc1
System: recombinant human PAI-1 (Homo sapiens, UniProt P05121)
Metric Name: inhibition at 0.3 µM
Numeric Readout: 71
//
Smiles Notation: CCCCCOc1ccc(-c2cc(C)cc(C)c2)cc1N(CCCCc1ccccc1)C(=O)C(=O)O
System: recombinant human PAI-1 (Homo sapiens, UniProt P05121)
Metric Name: inhibition at 0.3 µM
Numeric Readout: 15
//
Smiles Notation: CCCCCOc1cc(N(CCCCc2ccccc2)C(=O)C(=O)O)ccc1-c1ccc(OC(F)(F)F)cc1
System: recombinant human PAI-1 (Homo sapiens, UniProt P05121)
Metric Name: inhibition at 0.3 µM
Numeric Readout: 19
//
Smiles Notation: CCCCCN(C(=O)C(=O)O)c1cc(-c2ccc(OC(F)(F)F)cc2)ccc1OCCCCc1ccccc1
System: recombinant human PAI-1 (Homo sapiens, UniProt P05121)
Metric Name: inhibition at 0.3 µM
Numeric Readout: 10
//
Smiles Notation: CC(C)(C)c1cccc(Oc2cc(-c3cccc(OC(F)(F)F)c3)ccc2/C=C/C(=O)O)c1
System: recombinant human PAI-1 (Homo sapiens, UniProt P05121)
Metric Name: inhibition at 0.3 µM
Numeric Readout: 22
//
Smiles Notation: CC(C)(C)c1ccc(Oc2cc(-c3ccc(C#N)cc3)ccc2OCC(=O)O)cc1
System: recombinant human PAI-1 (Homo sapiens, UniProt P05121)
Metric Name: inhibition at 0.3 µM
Numeric Readout: 7
//
Smiles Notation: CC(C)(C)c1ccc(Sc2cc(-c3ccc(OC(F)(F)F)cc3)ccc2CC(=O)O)cc1
System: recombinant human PAI-1 (Homo sapiens, UniProt P05121)
Metric Name: inhibition at 0.3 µM
Numeric Readout: 21

(A) CC(C)c1ccc(-c2ccc(OCC(=O)O)c(Oc3ccc(C(C)(C)C)cc3)c2)cc1
(B) CC(C)(C)c1ccc(Oc2cc(Oc3ccc(OC(F)(F)F)cc3)ccc2OCC(=O)O)cc1
[ask] Of the two listed items, which has the higher inhibition at 0.3 µM? First: A Second: B Mark your selection by writing its label.
[reply] A
(A: 29%, B: 12%)

(a) CC(C)(C)c1ccc(Oc2ccc(-c3ccc(OC(F)(F)F)cc3)cc2OCC(=O)O)cc1
(b) CC(C)(C)c1ccc(Oc2cc(-c3ccc(F)cc3)ccc2OCC(=O)O)cc1
[ask] Between item a and item b , which reported inhibition at 0.3 µM is smaller? Let me know the label of the one you choose.
[reply] a
(a: 9%, b: 31%)

###

Target: recombinant human PAI-1 (Homo sapiens, UniProt P05121)
Experiment: Test Example 2: Human PAI-1 Inhibitory Activity (pH 7.4 HEPES buffer, 10 minutes incubation with two-chain tPA)
Type: biochemical
Parameters: purchased Molecular Innovations, Inc
Settings: read-out: Inhibition Rate of PAI-1 Activity (%)
Description: 0.1 M HEPES, 0.1 M NaCl. 1 mM EDTA. 0.1 % Polyethylene glycol 8,000 (Hampton Research Corporation), 2 mM Dimethyldecylphoshine oxide [Apo-10] (Fluka Corporation)
Metric Name: inhibition at 0.3 µM (%)

Below, each entry is followed by its recorded inhibition at 0.3 µM result.
Compound: CCCCCCOc1cc(-c2ccc(OC(F)(F)F)cc2)ccc1OC(CCCCCC)C(=O)O (stereo not shown)
System: recombinant human PAI-1 (Homo sapiens, UniProt P05121)
Unit Text: %
inhibition at 0.3 µM: 15
--
Compound: CCCCCCCc1ccc(-c2ccc(OC(F)(F)F)cc2)cc1N(CCCCc1ccccc1)C(=O)C(=O)O
System: recombinant human PAI-1 (Homo sapiens, UniProt P05121)
Unit Text: %
inhibition at 0.3 µM: 17
--
Compound: O=C(O)C(=O)N(CCCCc1ccccc1)c1ccc(N2CCSCC2)c(-c2ccc(OC(F)(F)F)cc2)c1
System: recombinant human PAI-1 (Homo sapiens, UniProt P05121)
Unit Text: %
inhibition at 0.3 µM: 14
--
Compound: CCCCCOc1ccc(-c2ccc(OC(F)(F)F)cc2)cc1N(CCCCc1ccccc1)C(=O)C(=O)O
System: recombinant human PAI-1 (Homo sapiens, UniProt P05121)
Unit Text: %
inhibition at 0.3 µM: 17

(1) CCCCc1ccc(Oc2cc(-c3ccc(OC(F)(F)F)cc3)ccc2OCC(=O)O)cc1
(2) O=C(O)C(=O)N(Cc1ccc2ccccc2c1)c1ccc(-c2ccc(OC(F)(F)F)cc2)cc1
(3) O=C(O)C(=O)N(CCCCc1ccccc1)c1ccc(N2CCCCCC2)c(-c2ccc(OC(F)(F)F)cc2)c1
(4) CC(C)(C)c1ccc(Oc2cc(-c3ccc(OC(F)(F)F)cc3)ccc2NCC(=O)O)cc1
[ask] I would appreciate it if you could sort these 4 compounds by inhibition at 0.3 µM, starting from the smallest number. Answer format: the labels, in the requested order.
[reply] 4, 2, 1, 3

(I) O=C(O)/C=C/c1ccc(-c2ccc(OC(F)(F)F)cc2)cc1Sc1ccccc1
(II) CCCCc1ccc(-c2ccc(OCC(=O)O)c(Oc3ccc(C(C)(C)C)cc3)c2)cc1
[ask] Larger number for inhibition at 0.3 µM: I , or II ? # answer = label of selected item
[reply] I

src = patent EP2272817A1
